system: c-Src; assay: phosphorylation enrichment, bacterial display (enrichment ratio); higher = better substrate or ligand; peptides without Tyr show the background;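 note: 11-residue human phosphosite peptides and single-mutation variants displayed on the E. coli surface, counted by deep sequencing, each peptide's frequency after selection divided by its frequency in the unselected input library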;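 note: frequency after pTyr selection over input frequency; kinase dosed for 20-30% of maximal phosphorylation in three min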
result_type: phosphorylation enrichment

>>> print(df.to_string())
                 biopolymer_sequence  measured_value
0       GVSYIYTIDGS [DCX_Y105_R102S]            4.85
1         NPQKPYFIRLY [WAS_Y83_S82P]           0.303
2  PIFEGYGLPHA [ACTA1_Y171_A172G_YF]           0.547
3        SSNLFYRWLTA [CNGA3_Y169_YF]           0.398
4         FKEQGYHRLPP [RIN1_Y681_YF]            0.37
5      RETSLYKACER [ASB2_Y162_P160S]           0.939
6         TSFSGYRFHRH [NKAPL_Y94_YF]           0.579

Hey, just so you know, these numbers are from the supplement of paper PMC10065799.
